system: U2OS; test: Multiplex assay against U2OS; assay type: toxicity, cell-based; settings: human, 48 h, 10 µM, compound concentration 10 uM, replicate 2
measured.endpoint: Population Fragmented Nuclei (%)
Give bare numbers, in %.

Here are 3 compounds together with their reported answers.
Exercise: // lookup Population Fragmented Nuclei (%) | system=U2OS | key= COc1cc(Nc2nccc(-c3cnn4nc(OC)ccc34)n2)cc(C(F)(F)F)c1
Solution: 26

Exercise: // lookup Population Fragmented Nuclei (%) | system=U2OS | key= CC(C)Oc1ccccc1C(=O)Nc1ccccc1C(=O)Nc1cccc(S(=O)(=O)C(F)(F)F)c1
Solution: 43

Exercise: I'm curious: which Population Fragmented Nuclei (%) was measured for CC(C)OC(=O)N1CCC(Oc2ncnc3c2cnn3-c2ccc(S(C)(=O)=O)cc2F)CC1 tested on U2OS?
Solution: 3

Batch of 5 compounds: report Population Fragmented Nuclei (%) for each.
1. CCc1nn(CCCN2CCN(c3cccc(Cl)c3)CC2)c(=O)n1CCOc1ccccc1.Cl [NEFAZODONE HYDROCHLORIDE]
2. CC(C)c1noc(N2CCC(COc3ccc(-c4ccc(S(C)(=O)=O)cc4)nc3)CC2)n1
3. CN1CCN(Cc2ccc(Nc3ncc(Cl)c(Nc4ccccc4S(=O)(=O)N(C)C)n3)cc2)CC1
4. Cc1ccc(C)c(Oc2ccncc2C(=O)N2CCN(C3CC3)c3ccccc32)c1
5. Cc1ccc2c(c1)c1c(n2CCc2ccc(C)nc2)CCN(C)C1 [LATREPIRDINE]

Solution:
14
5
24
22
13

* * *

Exercise: for every item that follows, state its recorded Growth Rate.
system: U2OS; assay: Incucyte cell viability with U2OS; format: toxicity, cell-based; settings: human, 18 h, 10 µM, compound concentration 10 uM, replicate number 2, timepoint 18 hours; note: filed as whole numbers so only -1 and 0 and 1 occur

Exercise: Requested read-out Growth Rate, target or system U2OS, entry CSc1cccnc1N1CCN(Cc2nc3ccccc3[nH]2)CC1
Solution: 1

Exercise: What measured Growth Rate is associated with CCCOc1ccc([C@H]2[C@H](C(=O)O)[C@@H](c3ccc4c(c3)OCO4)CN2CC(=O)Nc2c(CC)cccc2CC)cc1 on U2OS?
Solution: 1

Exercise: Enter reported Growth Rate observed with U2OS for O=C(Cc1ccccc1)Nc1nc2ccc(Cl)cc2c2nc(-c3ccco3)nn12
Solution: 0

Exercise: Query for U2OS: what Growth Rate does the record show for Cc1nc(N2CC[C@H](O)C2)ncc1-c1cc(C(F)(F)F)cc2[nH]ncc12 ?
Solution: 1

Exercise: Request - read-out Growth Rate | tested on U2OS | compound CC(C)Oc1ccc(-c2c[nH]cc2CN(C)CCN)cc1
Solution: 1

Exercise: Find the measured Growth Rate: item COC(=O)/C=C/c1cccc(N(Cc2ccc(-c3ccc(N(C)C)cc3)cc2)C(=O)C2CCCCC2)c1 , target or system U2OS.
Solution: 0

Exercise: Look up Growth Rate with U2OS for this compound: CCOC(=O)CCNc1cc(N2CCc3ccccc3CC2)nc(-c2cccnc2)n1
Solution: 0

Exercise: Give the reported Growth Rate for CCc1nn(CCCN2CCN(c3cccc(Cl)c3)CC2)c(=O)n1CCOc1ccccc1.Cl [NEFAZODONE HYDROCHLORIDE] (system: U2OS).
Solution: 0

# map each compound to its Growth Rate
1. Cc1cccc(CN2CCN(C(c3ccccc3)c3ccc(Cl)cc3)CC2)c1.Cl.Cl (stereo not drawn)
2. O=C(O)C1CN(Cc2ccc(-c3nc4cc(Cc5ccccc5F)ccc4s3)c(F)c2)C1
3. CC(C)OC(=O)N1CCC(Oc2ncnc3c2cnn3-c2ccc(S(C)(=O)=O)cc2F)CC1

Solution:
1. 0
2. 1
3. 0

* * *

test system: Fibroblast; experiment: Multiplex assay against human fibroblast; assay type: toxicity, cell-based; conditions: 48 h, 1 µM, compound concentration 1 uM, replicate 2
measured.endpoint: Population Apoptotic (%)
Answers are plain numbers, in %.

Exercise: Which Population Apoptotic (%) value belongs to CNC(=O)Nc1ccc(-c2nc(N3CC4CCC(C3)O4)c3cnn(C4CCC5(CC4)OCCO5)c3n2)cc1 ?
Solution: 75

Exercise: Tell me the measured Population Apoptotic (%) of O=c1cc(N2CCOCC2)oc2c(-c3cccc4c3sc3ccccc34)cccc12 , please.
Solution: 50

Exercise: Endpoint output: Population Apoptotic (%) of CC(C)Oc1ccccc1C(=O)Nc1ccccc1C(=O)Nc1cccc(S(=O)(=O)C(F)(F)F)c1 . Value?
Solution: 60

Report Population Apoptotic (%) for each item below.
1. CC(C)(C)NC[C@H](O)COc1nsnc1N1CCOCC1 [TIMOLOL]
2. COc1ccccc1CN[C@H]1C2CCN(CC2)[C@H]1C(c1ccccc1)c1ccccc1 [CP-96345]
3. Cl.O=C(O)c1cc(-c2ccc(C3CCNCC3)cc2)c2ccc(-c3ccc(C(F)(F)F)cc3)cc2c1
4. CC1=C(C(=O)Nc2cc3cn[nH]c3cc2F)C(c2ccc(C(F)(F)F)cc2)CC(=O)N1 (stereo not drawn)
5. CCc1ccc(OCc2ccccc2C(=O)Nc2ccc3nc(C)cc(N)c3c2)cc1.Cl
6. CC(C)c1noc(N2CCC(COc3ccc(-c4ccc(S(C)(=O)=O)cc4)nc3)CC2)n1 [GSK-1292263]
7. CC(C)NC(=O)N1CC[C@H](NC2=Nc3cc(F)ccc3N(CC(F)F)c3ccc(Cl)cc32)C1

Solution:
[33, 50, 100, 33, 84, 0, 33]

I have 3 compounds here; please give me Population Apoptotic (%) for each one.
1. COc1cc2ncn(-c3cc(OCc4ccccc4C(F)(F)F)c(C(N)=O)s3)c2cc1OC [GW843682X]
2. O=C(c1cc2c(cc1F)OC(c1ccc(F)cc1)(c1ccc(Cl)cc1Cl)O2)N1CCOCC1 (stereo not drawn)
3. Cc1ccc2c(c1)c1c(n2CCc2ccc(C)nc2)CCN(C)C1 [LATREPIRDINE]

Solution:
1: 75; 2: 33; 3: 100

Give Population Apoptotic (%) for each of the items listed below.
1. C[C@]12CC[C@@H]3c4ccc(O)cc4CC[C@H]3[C@@H]1CC[C@@H]2O [ESTRADIOL]
2. COC(=O)C1=C(C)NC(C)=C(C(=O)OCCCN2CCC(c3ccccc3)(c3ccccc3)CC2)[C@H]1c1cccc([N+](=O)[O-])c1 [NIGULDIPINE]

Solution:
[0, 0]

* * *

tested on: HEK-293T; experiment: Multiplex assay against HEK293T; format: toxicity, cell-based; details: human, 12 h, 1 µM, compound concentration 1 uM, replicate 1
measured.endpoint: Population Normal (%)
The answer consists of two parts: a number and, after it, its unit.

Exercise: Query (compound): O=C(c1cc2c(cc1F)OC(c1ccc(F)cc1)(c1ccc(Cl)cc1Cl)O2)N1CCOCC1 (stereo not given) ; field requested: Population Normal (%)
Solution: 87%

Exercise: For COc1ccccc1CN[C@H]1C2CCN(CC2)[C@H]1C(c1ccccc1)c1ccccc1 [CP-96345] , what is its reported Population Normal (%)?
Solution: 86%

Exercise: Quick one: Population Normal (%) of CC(C)c1noc(N2CCC(COc3ccc(-c4ccc(S(C)(=O)=O)cc4)nc3)CC2)n1 [GSK-1292263] ?
Solution: 85%

Exercise: # query: Population Normal (%) of entry CCc1ccc(OCc2ccccc2C(=O)Nc2ccc3nc(C)cc(N)c3c2)cc1.Cl
Solution: 81%

Exercise: Query (compound): CN1CCN(Cc2ccc(Nc3ncc(Cl)c(Nc4ccccc4S(=O)(=O)N(C)C)n3)cc2)CC1 [DUBERMATINIB] ; field requested: Population Normal (%)
Solution: 87%

Exercise: // query Population Normal (%) value for entry CC(C)OC(=O)N1CCC(Oc2ncnc3c2cnn3-c2ccc(S(C)(=O)=O)cc2F)CC1
Solution: 85%

Here are 7 compounds. What values of Population Normal (%) were reported for them?
1. Cc1cccc(CN2CCN(C(c3ccccc3)c3ccc(Cl)cc3)CC2)c1.Cl.Cl (stereo not given)
2. C=CC(=O)Nc1cccc(Oc2nc(Nc3ccc(N4CCN(C)CC4)cc3OC)ncc2Cl)c1
3. CCOC(=O)Nc1cc(-c2ccc(C)c(NS(C)(=O)=O)c2)nn2c(C)nnc12
4. Cc1ccc(C)c(Oc2ccncc2C(=O)N2CCN(C3CC3)c3ccccc32)c1
5. O=c1cc(N2CCOCC2)oc2c(-c3cccc4c3sc3ccccc34)cccc12
6. Cc1nc(N2CC[C@H](O)C2)ncc1-c1cc(C(F)(F)F)cc2[nH]ncc12
7. CC(C)CC(=O)Nc1[nH]nc2c1CN(C(=O)C1CCN(C)CC1)C2(C)C [PHA-793887]

Solution:
80%
81%
90%
91%
87%
92%
91%

* * *

tested on: HEK-293T; experiment: Multiplex assay against HEK293T; assay type: toxicity, cell-based; conditions: human, 48 h, 10 µM, compound concentration 10 uM, replicate 1;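 for Population Tubulin-Different-Phenotype (%): share of the cells with healthy nuclei that show this phenotype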
measured.endpoint: Population Tubulin-Different-Phenotype (%)
Answers are plain numbers, in %.

Some solved cases for reference:
Exercise: Value lookup for Population Tubulin-Different-Phenotype (%); key = CN1CCN(Cc2ccc(Nc3ncc(Cl)c(Nc4ccccc4S(=O)(=O)N(C)C)n3)cc2)CC1 [DUBERMATINIB]
Solution: 70

Exercise: Returns the measured Population Tubulin-Different-Phenotype (%) for the input molecule. Input: COc1ccc(-c2ccc3ncc4c(c3c2)n(-c2ccc(N3CCNCC3)c(C(F)(F)F)c2)c(=O)n4C)cn1.O=C(O)/C=C\C(=O)O [BGT-226]
Solution: 0

Exercise: // query Population Tubulin-Different-Phenotype (%) value for entry CC(C)(C)NC[C@H](O)COc1nsnc1N1CCOCC1 [TIMOLOL]
Solution: 20

Exercise: Any idea what Population Tubulin-Different-Phenotype (%) was measured for COc1cc2ncn(-c3cc(OCc4ccccc4C(F)(F)F)c(C(N)=O)s3)c2cc1OC [GW843682X] ?
Solution: 85

Exercise: Entry under review: COc1cc(Nc2nccc(-c3cnn4nc(OC)ccc34)n2)cc(C(F)(F)F)c1 . Reported Population Tubulin-Different-Phenotype (%)?
Solution: 56

Exercise: Data request, read-out Population Tubulin-Different-Phenotype (%), for Cc1c[nH]c2nccc(Oc3c(F)cc(Nc4cc(Cl)nc(N)n4)cc3F)c12 [BAY-549]
Solution: 6

Exercise: Query: Population Tubulin-Different-Phenotype (%); subject: CNC(=O)Nc1ccc(-c2nc(N3CC4CCC(C3)O4)c3cnn(C4CCC5(CC4)OCCO5)c3n2)cc1
Solution: 100

Next:
Exercise: Population Tubulin-Different-Phenotype (%) for CC1=C(C(=O)Nc2cc3cn[nH]c3cc2F)C(c2ccc(C(F)(F)F)cc2)CC(=O)N1 (stereo not drawn) ?
Solution: 34
